# System: SF-268 CNS
# protocolText: NCI tumour cell line growth inhibition, 48 h
measurementLabel: TGI

Q) Reported TGI, compound COc1cc2c(cc1OC)-c1c3cc(O)ccc3nn[n+]1CC2 : ____
A) > 100 µM

Q) Give its TGI value. Item: CCCCOC(=O)C1OC(O[C@H]2CCC3(C)C(CCC4(C)C3CC=C3C5CC(C)(C)CCC5(C(=O)O)CC[C@]34C)C2(C)C)C(OC2OC(CO)C(O)C(O)C2O)C(OC2OC(CO)C(O)C(O)C2O)C1O (stereo not given in full)
A) 84.4 µM

Q) Given the compound c1ccc2cc(-c3cc(-c4cc(-c5ccc6ccccc6c5)on4)no3)ccc2c1 , what is its reported TGI?
A) > 100 µM

Q) I'd like to know its TGI. The compound in question is [N-]=[N+]=Nc1cc(=O)oc2ccccc12
A) > 100 µM

Q) What does the data say about its TGI? Entry: COC1(OC)CCC2C1C1CCC(OC)(OC)C21 (stereo not given)
A) > 50 µM

Q) Look at this compound and give its reported TGI. CC1(c2ccc(F)cc2)C(C#N)C(=O)NC(=O)C1C#N (stereo not given)
A) > 100 µM

Q) What measured TGI goes with Cc1ccc(NC2=C(Cl)C(=O)N(Cc3ccccc3)C2=O)cc1O ?
A) > 100 µM

Q) Which value of TGI has been reported for O=c1[nH][nH]c(=O)n1Cc1ccccc1Cn1c(=O)[nH][nH]c1=O in the records?
A) > 100 µM

Q) Would you mind telling me what TGI value was observed for C[C@]12CC[C@H](O)CC1=CC[C@@H]1C2CC[C@]2(C)C(=O)N(N)C(=O)CC12 (stereo not given in full) ?
A) > 100 µM

Q) Need TGI, item Cc1nc2ccccc2c(N)c1-c1cc(C)c2c(C)nc3ccccc3c2n1
A) 2.08 µM
